Sourced from patent US4363805A

Test system: mongrel cats
Assay info: Inotropic and heart-circulatory effectiveness on narcotised cats, intravenous
Assay type: in vivo, cat
Condition set: 2.50 mg/kg i.v.; 6 animals
Kindly return T if reported heart frequency Δ is no lower than -20 min⁻¹; return F if it is lower.

Look over these answered cases.
[[record]]
molecule = "O=[N+]([O-])O[C@H]1CO[C@H]2[C@@H]1OC[C@@H]2NCCCCCc1ccccc1 [Example 30]"
label = "T"

[[record]]
molecule = "N#Cc1ccccc1OCC(O)CN[C@H]1CO[C@H]2[C@@H]1OC[C@@H]2O[N+](=O)[O-] (some centres unmarked) [Example 50]"
label = "T"

[[record]]
molecule = "O=[N+]([O-])O[C@H]1CO[C@H]2[C@@H]1OC[C@@H]2NCCCOc1ccccc1 [Example 36]"
label = "F"

[[record]]
molecule = "C=CCc1ccccc1OCC(O)CN[C@H]1CO[C@H]2[C@@H]1OC[C@@H]2O[N+](=O)[O-] (some centres unmarked) [Example 49]"
label = "F"

[[record]]
molecule = "O=[N+]([O-])O[C@H]1CO[C@H]2[C@@H]1OC[C@H]2NCC(O)COc1cccc2ccccc12 (some centres unmarked) [Example 55]"
label = "T"

[[record]]
molecule = "O=[N+]([O-])O[C@H]1CO[C@H]2[C@@H]1OC[C@@H]2NCCCc1ccccc1 [Example 28]"
label = "F"

[[record]]
molecule = "CN(CCCOc1ccccc1)[C@H]1CO[C@H]2[C@@H]1OC[C@@H]2O[N+](=O)[O-] [Example 34]"
label = "T"

[[record]]
molecule = "O=[N+]([O-])O[C@H]1CO[C@H]2[C@@H]1OC[C@@H]2NCC(O)COc1cccc(C(F)(F)F)c1 (some centres unmarked) [Example 52]"
label = "T"


From here, focus on the item given below.
Query block: Please check the record O=[N+]([O-])O[C@H]1CO[C@H]2[C@@H]1OC[C@@H]2NCCCCc1ccccc1 [Example 29] and state if its heart frequency Δ is at or above -20 min⁻¹.
Result block: F
